# Test system: Pseudomonas savastanoi pv. phaseolicola
# Measurement description: In vitro antibacterial activity against Pseudomonas syringae pv. phaseolicola E81 assessed as inhibition at 0.1 %
# Type: functional
Measurement name: diameter of the inhibition zone (DIZ) (cm)
Quick reminder: number only, in cm, skip the unit.

Exam item: Reported diameter of the inhibition zone (DIZ), molecule Cc1ccc(Cn2cnc3cc(C)c(C)cc32)cc1 : ____
Marked response: 1

Exam item: Reported diameter of the inhibition zone (DIZ), molecule Nc1nc2ccccc2n1/N=C/c1ccc([N+](=O)[O-])o1 : ____
Marked response: 2

Exam item: Reported diameter of the inhibition zone (DIZ), molecule Nc1nc2ccccc2n1Cc1ccc(Cl)cc1 : ____
Marked response: 1

Exam item: Reported diameter of the inhibition zone (DIZ), molecule Cc1cc2nc(/N=C/c3ccc([N+](=O)[O-])o3)n(Cc3ccc(Cl)cc3)c2cc1C : ____
Marked response: 2

Exam item: Reported diameter of the inhibition zone (DIZ), molecule Cc1cc2nc(N)n(Cc3cccc(Cl)c3)c2cc1C : ____
Marked response: 2

Exam item: Reported diameter of the inhibition zone (DIZ), molecule O=[N+]([O-])c1ccc(/C=N/c2nc3ccccc3[nH]2)o1 : ____
Marked response: 2

Exam item: Reported diameter of the inhibition zone (DIZ), molecule Cc1cc2nc(N)n(Cc3ccc(Cl)cc3)c2cc1C : ____
Marked response: 2

Exam item: Reported diameter of the inhibition zone (DIZ), molecule O=[N+]([O-])c1ccc(/C=N/c2nc3ccccc3n2Cc2ccccc2Cl)o1 : ____
Marked response: 1

Exam item: Reported diameter of the inhibition zone (DIZ), molecule Cc1cc2ncn(Cc3ccccc3Cl)c2cc1C : ____
Marked response: 1

Data provenance is ChEMBL document CHEMBL3045028.
